src = patent US20060166996A1

# assay-explanation: Pharmacokinetic study in rats
# Type: in vivo
# assay-context: plasma; rat; oral 10 mg/kg in N-methylglucosamine/PG/Tween 80 (physiologic vehicle); read-out: PK rat % F
Can you tell me bioavailability for the items I'm about to list?
Answer in %, number only, no unit symbol.

Per the record, COc1ccc2c(Cc3c(Cl)cncc3Cl)nnc(-c3sccc3C(=O)O)c2c1 [Compound 10] has bioavailability of 7

Per the record, COc1ccc2c(Cc3c(Cl)cncc3Cl)nnc(-c3cccc(C(=O)O)c3)c2c1 [Compound 2] has bioavailability of 43

Per the record, O=C(O)c1cccc(-c2nnc(Cc3c(Cl)cncc3Cl)c3ccc(OC(F)F)cc23)c1 [Compound 8] has bioavailability of 41
